Sourced from patent US20230212285A1

target: T1, cynomolgus monkey C-KIT-Fc protein (cynomolgus monkey); experiment: direct ELISA, IgG at 1 µg/ml
T1 construct: also called cyno C-KIT-Fc; cyno C-KIT
recordedMetric: OD450 nm

What value of OD450 nm has been recorded for this entry: MH1 IgG1 (antibody, V domains shown, human IgG1; also called IgG1-MH1; C-KIT-MH1) VH: QVQLVQSGAEVKKPGASVKVSCKASGYTFTDYYMNWVRQAPGQGLEWMGRIYPGSGNTYYAQKFQGRVTMTRDTSTSTVYMELSSLRSEDTAVYYCARGVYYYDYWGQGTLVTVSS VL: DIQMTQSPSSLSASVGDRVTITCRASQGIRTNLAWFQQKPGKAPKSLIYAASSLQSGVPSRFSGSGSGTDFTLTISSLQPEDFATYYCQQYNSYPRTFGGGTKVEIK
> 2 OD450 nm

What do you have for E-C2 (antibody, human IgG1, V domains shown, human IgG1; also called C-KIT-E-C2) VH: QVQLVQSGAEVKKPGASVKVSCKASGYTFTDYYMNWVRQAPGQGLEWMGRIYPGSGNTYYAQKFQGRVTMTRDTSTSTVYMELSSLRSEDTAVYYCARGVYYLDYWGQGTLVTVSS VL: DIQMTQSPSSLSASVGDRVTITCRASQGIRTNVAWLQQKPGKAPKSLIYSASYRQSGVPSRFSGSGSGTDFTLTISSLQPEDFATYYCQQYNSYPRTFGGGTKVEIK ?
> 2 OD450 nm
